Sourced from ChEMBL document CHEMBL1799982

test: Inhibition of pig brain CK1 delta/epsilon using RRKHAAIGpSAYSITA as substrate; parameters: species or system Sus scrofa
molecules and their reported log10(IC50)
Lab note - IC50 converted to log10 from values in µM.

Q: I am curious: what log10(IC50) value has been reported for Nc1ncc(I)c(-c2c[nH]c3c(N)cccc23)n1 ?
A: 0.04

Q: I am curious: what log10(IC50) value has been reported for Nc1nccc(-c2c[nH]c3cc(Br)ccc23)n1 [MERIDIANIN D] ?
A: 0.58

Q: I am curious: what log10(IC50) value has been reported for COc1cccc(-c2cnc(N)nc2-c2c[nH]c3cc(Br)ccc23)c1 ?
A: 0.51

Q: I am curious: what log10(IC50) value has been reported for Nc1ccc2[nH]cc(-c3nc(N)ncc3I)c2c1 ?
A: -0.57

Q: I am curious: what log10(IC50) value has been reported for Nc1ncc(I)c(-c2c[nH]c3ccc(Br)cc23)n1 ?
A: -0.11

Q: I am curious: what log10(IC50) value has been reported for Nc1nccc(-c2c[nH]c3cccc(Br)c23)n1 ?
A: 0.72

----------
assay: Inhibition of pig brain CK1 delta/epsilon using RRKHAAIGpSAYSITA as substrate; design: species or system Sus scrofa
measured property: IC50 (µM)
Please respond with the number in µM and leave the unit unwritten.

Q: I am curious: what IC50 value has been reported for Nc1ncc(I)c(-c2c[nH]c3ccc([N+](=O)[O-])cc23)n1 ?
A: 0.42

----------
test system: MCF7; test: Antiproliferative activity against human MCF7 cells after 48 hrs by resazurin reduction test; settings: MCF7, 48 h
molecules and their reported pIC50
Field pIC50 (float): negative decimal logarithm of the concentration in molar.

Worked examples, 3 molecules total:
molecule: CC(=O)c1ccc(-c2cnc(N)nc2-c2c[nH]c3cc(Br)ccc23)cc1
pIC50: 6.00
//
molecule: Nc1ncc(I)c(-c2c[nH]c3ccccc23)n1
pIC50: 4.77
//
molecule: Nc1ncc(I)c(-c2c[nH]c3cc(Br)ccc23)n1
pIC50: 5.28

Q: I am curious: what pIC50 value has been reported for Nc1nccc(-c2c[nH]c3ccc(Br)cc23)n1 [MERIDIANIN C] ?
A: 4.62

----------
assay: Inhibition of pig brain CK1 delta/epsilon using RRKHAAIGpSAYSITA as substrate; parameters: species or system Sus scrofa
Labelling: IC50 reported below 2000 nM becomes yes; at or above becomes no.

Please review the following examples before continuing.
molecular string: Nc1ncc(I)c(-c2c[nH]c3cccc([N+](=O)[O-])c23)n1
category label: no

molecular string: Nc1ncc(I)c(-c2c[nH]c3cccc(N)c23)n1
category label: no

molecular string: CC(=O)Nc1ccc(-c2cnc(N)nc2-c2c[nH]c3cccc(Br)c23)cc1
category label: no

molecular string: Nc1ncc(I)c(-c2c[nH]c3cccc(Br)c23)n1
category label: yes

molecular string: Nc1ncc(I)c(-c2c[nH]c3cc(Br)ccc23)n1
category label: yes

molecular string: Nc1nccc(-c2c[nH]c3ccc(Br)cc23)n1
category label: no

Q: Find out if reported IC50 for Nc1ncc(I)c(-c2c[nH]c3c(Br)cccc23)n1 is less than 2000 nM
A: yes

Q: Find out if reported IC50 for CC(=O)c1ccc(-c2cnc(N)nc2-c2c[nH]c3ccc(Br)cc23)cc1 is less than 2000 nM
A: no

Q: Find out if reported IC50 for COc1cccc(-c2cnc(N)nc2-c2c[nH]c3c(Br)cccc23)c1 is less than 2000 nM
A: no

----------
biological target: Dual specificity tyrosine-phosphorylation-regulated kinase 1A (Rattus norvegicus, UniProt Q63470); experiment: Inhibition of rat recombinant GST-tagged DYRK1A using myelin protein as substrate and [gamma32]-ATP after 30 mins by scintillation counting
compounds and their reported log10 IC50
Lab note - IC50 converted to log10 from values in nM.

Worked examples, 3 compounds total:
compound: Nc1ncc(I)c(-c2c[nH]c3cc([N+](=O)[O-])ccc23)n1
log10 IC50: 1.98

compound: CC(=O)c1ccc(-c2cnc(N)nc2-c2c[nH]c3ccc(Br)cc23)cc1
log10 IC50: 3.93

compound: Nc1ncc(I)c(-c2c[nH]c3c([N+](=O)[O-])cccc23)n1
log10 IC50: 2.66

As a next step, examine the compound that follows.
Q: I am curious: what log10 IC50 value has been reported for Nc1nccc(-c2c[nH]c3cccc(Br)c23)n1 ?
A: 2.93

----------
molecules and their reported pIC50
tested on: IMR-32; assay: Antiproliferative activity against human IMR32 cells by MTS reduction assay
Field pIC50 (float): negative decimal logarithm of the concentration in molar.

Worked examples, 3 molecules total:
molecular string: COc1cccc(-c2cnc(N)nc2-c2c[nH]c3cc(Br)ccc23)c1
pIC50: 4.74
//
molecular string: Nc1ncc(I)c(-c2c[nH]c3ccc(Br)cc23)n1
pIC50: 4.89
//
molecular string: Nc1ncc(I)c(-c2c[nH]c3c(N)cccc23)n1
pIC50: 5.40

As a next step, examine the molecule that follows.
Q: I am curious: what pIC50 value has been reported for Nc1ncc(I)c(-c2c[nH]c3ccc([N+](=O)[O-])cc23)n1 ?
A: 5.00

----------
assay: Antiproliferative activity against human primary fibroblasts after 48 hrs by resazurin reduction test; type: cell-based; conditions: Fibroblast
Class (required): determined from IC50; valid ranges are low-valued: < 8 µM; mid-valued: ≥ 8 µM and < 20 µM; high-valued: ≥ 20 µM

molecular string: CC(=O)Nc1ccc(-c2cnc(N)nc2-c2c[nH]c3cc(Br)ccc23)cc1
category label: high-valued
--
molecular string: Nc1ncc(I)c(-c2c[nH]c3cc(Br)ccc23)n1
category label: low-valued
--
molecular string: Nc1ncc(I)c(-c2c[nH]c3cccc(N)c23)n1
category label: high-valued
--
molecular string: COc1cccc(-c2cnc(N)nc2-c2c[nH]c3c(Br)cccc23)c1
category label: high-valued
--
molecular string: Nc1ncc(I)c(-c2c[nH]c3ccc([N+](=O)[O-])cc23)n1
category label: mid-valued
--
molecular string: Nc1ncc(I)c(-c2c[nH]c3cccc([N+](=O)[O-])c23)n1
category label: low-valued
--
molecular string: Nc1ncc(I)c(-c2c[nH]c3cc([N+](=O)[O-])ccc23)n1
category label: mid-valued
--
molecular string: Nc1ncc(I)c(-c2c[nH]c3c(Br)cccc23)n1
category label: mid-valued
--
molecular string: Nc1ncc(I)c(-c2c[nH]c3c([N+](=O)[O-])cccc23)n1
category label: low-valued

Next, consider the following molecule.
Q: Tag the class for Nc1ccc2c(-c3nc(N)ncc3I)c[nH]c2c1
A: high-valued

----------
molecular target: Glycogen synthase kinase-3 (Sus scrofa, UniProt B2LUN4+I6LNT8); experiment: Inhibition of pig brain GSK-3alpha/beta using YRRAAVPPSPSLSRHSSPHQSpEDEEE as substrate
measured property: IC50 (µM)
Please respond with the number in µM and leave the unit unwritten.

Worked examples, 3 compounds total:
compound: Nc1ncc(-c2ccc(C(F)(F)F)cc2)c(-c2c[nH]c3ccc(Br)cc23)n1
units: µM
IC50: 2
--
compound: Nc1nccc(-c2c[nH]c3cc(Br)ccc23)n1 [MERIDIANIN D]
units: µM
IC50: 7.2
--
compound: Nc1ncc(I)c(-c2c[nH]c3ccccc23)n1
units: µM
IC50: 3.7

Q: Form: Entry = Nc1ncc(I)c(-c2c[nH]c3ccc(Br)cc23)n1 | System = Glycogen synthase kinase-3 (Sus scrofa, UniProt B2LUN4+I6LNT8) | IC50 = ____
A: 2.1

Q: Form: Entry = COc1cccc(-c2cnc(N)nc2-c2c[nH]c3ccc(Br)cc23)c1 | System = Glycogen synthase kinase-3 (Sus scrofa, UniProt B2LUN4+I6LNT8) | IC50 = ____
A: 1.2

Q: Form: Entry = Nc1ncc(I)c(-c2c[nH]c3c(N)cccc23)n1 | System = Glycogen synthase kinase-3 (Sus scrofa, UniProt B2LUN4+I6LNT8) | IC50 = ____
A: 4.4

Q: Form: Entry = Nc1ncc(I)c(-c2c[nH]c3c(Br)cccc23)n1 | System = Glycogen synthase kinase-3 (Sus scrofa, UniProt B2LUN4+I6LNT8) | IC50 = ____
A: 4

Q: Form: Entry = COc1cccc(-c2cnc(N)nc2-c2c[nH]c3cccc(Br)c23)c1 | System = Glycogen synthase kinase-3 (Sus scrofa, UniProt B2LUN4+I6LNT8) | IC50 = ____
A: 1.4

Q: Form: Entry = Nc1ncc(I)c(-c2c[nH]c3ccc([N+](=O)[O-])cc23)n1 | System = Glycogen synthase kinase-3 (Sus scrofa, UniProt B2LUN4+I6LNT8) | IC50 = ____
A: 0.66

Q: Form: Entry = Nc1ncc(-c2ccc(C(F)(F)F)cc2)c(-c2c[nH]c3cccc(Br)c23)n1 | System = Glycogen synthase kinase-3 (Sus scrofa, UniProt B2LUN4+I6LNT8) | IC50 = ____
A: 1

Q: Form: Entry = Nc1ncc(I)c(-c2c[nH]c3cc(Br)ccc23)n1 | System = Glycogen synthase kinase-3 (Sus scrofa, UniProt B2LUN4+I6LNT8) | IC50 = ____
A: 1.1

Q: Form: Entry = Nc1ncc(I)c(-c2c[nH]c3cc([N+](=O)[O-])ccc23)n1 | System = Glycogen synthase kinase-3 (Sus scrofa, UniProt B2LUN4+I6LNT8) | IC50 = ____
A: 2.6

Q: Form: Entry = Nc1ncc(-c2ccc(C(F)(F)F)cc2)c(-c2c[nH]c3c(Br)cccc23)n1 | System = Glycogen synthase kinase-3 (Sus scrofa, UniProt B2LUN4+I6LNT8) | IC50 = ____
A: 8.5

Q: Form: Entry = COc1cccc(-c2cnc(N)nc2-c2c[nH]c3cc(Br)ccc23)c1 | System = Glycogen synthase kinase-3 (Sus scrofa, UniProt B2LUN4+I6LNT8) | IC50 = ____
A: 4.5
